test system: polyclonal IgM RF; test: Inhibition of RF binding: PAP immune complexes on rheumatoid factor coated plates (Example 3); settings: PAP pre-incubated 30 minutes with peptides or RF; (+) control PAP with no peptide 0.753
Positions of bridges follow the written chain, without caps; N, C: chain ends. No end group written: not given here.
measuredAttribute: OD 405 nm
// no unit, no text: just the number

Recorded OD 405 nm, per entry:
querySequence	measurementTarget	number
PCARHLGELVWCT (disulfide 2-12 (inferred))	polyclonal IgM RF	0.106
DCAWHLGELAACT (disulfide 2-12 (inferred)) [peptide substituted with alanine at positions 10 and 11]	polyclonal IgM RF	0.622
DCARHLGELVWCT (disulfide 2-12 (inferred))	polyclonal IgM RF	0.109

# lookup: OD 405 nm of RCARHLGELVWCT (disulfide 2-12 (inferred)) 0.152

---

system: FcγIIa; test: Inhibition of FcR binding to PAP by additional peptides, FcγIIa coated plates (Example 8); settings: OD read at 405 nm; positive control 1.599
Positions of bridges follow the written chain, without caps; N, C: chain ends. No end group written: not given here.
measuredAttribute: OD 405 nm

Recorded OD 405 nm, per entry:
querySequence	measurementTarget	OD 405 nm
DCAFHLGELVWCT (disulfide 2-12 (inferred))	FcγIIa	0.660
APPCAWHLGELVWCT (disulfide 4-14 (inferred))	FcγIIa	0.658
APPDCAWHLGELVWCT (Synthetically generated polypeptide)	FcγIIa	0.509

Shift focus to the following entry.
Hello, I am looking for reported OD 405 nm with FcγIIa for APPCAFHLGELVWCT (disulfide 4-14 (inferred)) . Could you help? 0.605

---

system: FcγIIb; assay: Inhibition of FcR binding: reverse ELISA, PAP immune complexes on FcγIIb coated plates (Example 3); conditions: plates read at 450 nm, (+) control PAP with no peptide 3.600
Positions of bridges follow the written chain, without caps; N, C: chain ends. No end group written: not given here.
Form field: OD at 450 nm (PAP binding to FcγIIb) (one value per entry).
// no unit, no text: just the number

Recorded OD at 450 nm (PAP binding to FcγIIb), per entry:
querySequence	OD at 450 nm (PAP binding to FcγIIb)
DCAWHLGELAACT (disulfide 2-12 (inferred)) [peptide substituted with alanine at positions 10 and 11]	1.067
RCARHLGELVWCT (disulfide 2-12 (inferred))	3.284

# lookup: OD at 450 nm (PAP binding to FcγIIb) of PCARHLGELVWCT (disulfide 2-12 (inferred)) 1.211

Another sequence: DCARHLGELVWCT (disulfide 2-12 (inferred)) 1.952

Another sequence: DCAAHLGELAACT (disulfide 2-12 (inferred)) 2.263

---

system: FcγIII; test: Inhibition of FcR binding: reverse ELISA, PAP immune complexes on FcγIII coated plates (Example 3); details: plates read at 450 nm, (+) control PAP with no peptide 3.600
Positions of bridges follow the written chain, without caps; N, C: chain ends. No end group written: not given here.
Form field: OD 450 nm (PAP immune complex binding) (one value per entry).
// no unit, no text: just the number

Recorded OD 450 nm (PAP immune complex binding), per entry:
querySequence	OD 450 nm (PAP immune complex binding)
DCAWHLGELAACT (disulfide 2-12 (inferred)) [peptide substituted with alanine at positions 10 and 11]	1.345
DCAAHLGELAACT (disulfide 2-12 (inferred))	2.413
RCARHLGELVWCT (disulfide 2-12 (inferred))	3.502
DCARHLGELVWCT (disulfide 2-12 (inferred))	2.529

Shift focus to the following entry.
Hello, I am looking for reported OD 450 nm (PAP immune complex binding) with FcγIII for PCARHLGELVWCT (disulfide 2-12 (inferred)) . Could you help? 1.602

Origin of the recorded values: patent US7786258B2
